Target: BACE 1 (Beta Secretase enzyme) (Homo sapiens, UniProt P56817)
Sequence (P56817 46-501, species assumed): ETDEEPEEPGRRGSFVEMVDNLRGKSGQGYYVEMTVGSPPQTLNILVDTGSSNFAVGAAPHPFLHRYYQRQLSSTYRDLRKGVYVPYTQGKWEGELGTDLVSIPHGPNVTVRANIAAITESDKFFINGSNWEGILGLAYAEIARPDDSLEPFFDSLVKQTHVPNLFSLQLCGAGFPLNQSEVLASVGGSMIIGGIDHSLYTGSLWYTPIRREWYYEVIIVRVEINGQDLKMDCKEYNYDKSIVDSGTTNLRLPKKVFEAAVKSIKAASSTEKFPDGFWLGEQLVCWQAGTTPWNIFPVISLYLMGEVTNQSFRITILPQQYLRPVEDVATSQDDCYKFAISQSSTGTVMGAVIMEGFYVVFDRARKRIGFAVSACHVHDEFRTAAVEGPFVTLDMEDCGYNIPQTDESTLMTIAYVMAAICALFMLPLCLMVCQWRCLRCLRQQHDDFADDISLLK
Experiment: In vitro enzymatic BACE FRET assay
Format: biochemical
Conditions: IC50 range symbols, Table 1; read-out: BACE 1 FRET assay
Measured IC50 values are reported for all entries that follow.

Take a look at these entries with their results.
| COMPOUND | IC50 |
| --- | --- |
| COc1ccccc1[C@@H](C)NC(=O)C(C)Cc1cc2cc(-c3ccccc3C)ccc2nc1N (some centres unmarked) [Example 76] | < 0.5 µM |
| CC(Cc1cc2cc(-c3cccc(Cl)c3Cl)ccc2nc1N)C(=O)NC1CCOC(C)(C)C1 (centres unmarked) [Example 159] | < 0.5 µM |
| Cc1ccccc1-c1ccc2nc(N)c(C(C)CC(=O)NCC3CCCCC3)cc2c1 (centres unmarked) [Example 6] | < 0.5 µM |
| Cc1ccccc1-c1ccc2nc(N)c(C[C@@H](C)C(=O)NCc3ncccn3)cc2c1 [Example 85] | < 0.5 µM |
| Cc1ccccc1-c1ccc2nc(N)c(C[C@@H](C)C(=O)NC3C[C@@H](C)O[C@@H](C)C3)cc2c1 (some centres unmarked) [Example 12] | < 0.5 µM |
| CC(Cc1cc2cc(-c3cccc(Cl)c3)ccc2nc1N)C(=O)NC1CCOC(C)(C)C1 (centres unmarked) [Example 169] | < 0.5 µM |

Challenge: Identify IC50 associated with the compound CCC1CC1c1ccc2nc(N)c(CC(C)C(=O)NCCC(C)(C)C)cc2c1 (centres unmarked) [Example 120]
Response given: 0.5 to 1 µM

Challenge: Please look at this compound and report its IC50: CC(Cc1cc2cc(-c3ccccn3)ccc2nc1N)C(=O)NCCC(C)(C)C (centres unmarked) [Example 122]
Response given: < 0.5 µM

Challenge: Give IC50 for Cc1cccnc1-c1ccc2nc(N)c(CCC(=O)N[C@H](C)c3cccnc3)cc2c1 [Example 132]
Response given: 1 to 5 µM

Challenge: Output measured IC50 for this item: CC(Cc1cc2cc(-c3ncccc3CCN3CCCC3)ccc2nc1N)C(=O)NCCC(C)(C)C (centres unmarked) [Example 125]
Response given: < 0.5 µM

meta.source: patent US9296698B2
